molecular target: BFP-aq (Aequorea victoria); assay: biochemical; type: biochemical; parameters: The recombinant apoaequorins encoded by piP-HE is composed of 191 amino acids, whose N-terminus starts from Ala-Asn-Ser-; made in house; host or cells: E. coli strain WA802; details: pH 8, read-out: Luminescence activity (%) Initial velocity
Sequence (P07164 other isoform, or with tags, fused parts or gaps with the stated changes): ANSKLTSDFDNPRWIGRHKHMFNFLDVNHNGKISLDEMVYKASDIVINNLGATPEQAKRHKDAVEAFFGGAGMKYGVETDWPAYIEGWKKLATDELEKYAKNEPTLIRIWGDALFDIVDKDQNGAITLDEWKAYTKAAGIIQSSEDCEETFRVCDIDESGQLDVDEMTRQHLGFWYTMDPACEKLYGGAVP
Observable: activity at 30000 µM (%)
// return numeric value only (unit: %, not printed)

Reference set, count: 5
> print(dat)
                smiles.record  readout.unit  meas.value
1                   CCN(CC)CC             %          68
2               NCCc1c[nH]cn1             %          92
3         NCCCC[C@H](N)C(=O)O             %          66
4                 Cc1ncc[nH]1             %          83
5  N[C@@H](Cc1c[nH]cn1)C(=O)O             %          82

Exercise: I would be grateful if you could share the reported activity at 30000 µM for `Cc1c[nH]cn1` .
Solution: 92

Exercise: Request: `c1c[nH]cn1`
Solution: 153
